Test system Type-1 angiotensin II receptor (Homo sapiens), log10(Ki) listed for each of the compounds.
Plainly stated, the numbers are log10 of Ki given in nM.

Worked examples, 8 compounds total:
>  <smiles.input>
CCCCC(=O)N(Cc1ccc2c(-c3nnn[nH]3)cc3ccccc3c(=O)c2c1)[C@H](C(=O)O)C(C)C

>  <log10(Ki)>
0.94

$$$$
>  <smiles.input>
CCCc1nc2c(C)cc(C)nc2n1Cc1ccc2c(c1)Oc1ccccc1C=C2c1nnn[nH]1

>  <log10(Ki)>
-0.15

$$$$
>  <smiles.input>
CCCCc1nc(Cl)c(C(=O)O)n1Cc1ccc2c(-c3nnn[nH]3)cc3ccccc3c(=O)c2c1

>  <log10(Ki)>
0.32

$$$$
>  <smiles.input>
CCc1cc(OCc2ccc3c(-c4nnn[nH]4)cc4ccccc4c(=O)c3c2)c2ccccc2n1

>  <log10(Ki)>
-0.19

$$$$
>  <smiles.input>
CCCCC(=O)N(Cc1ccc2c(c1)Oc1ccccc1C=C2c1nnn[nH]1)[C@H](C(=O)O)C(C)C

>  <log10(Ki)>
0.98

$$$$
>  <smiles.input>
Cc1cc(OCc2ccc3c(-c4nnn[nH]4)cc4ccccc4c(=O)c3c2)c2c(n1)CCCC2

>  <log10(Ki)>
0.63

$$$$
>  <smiles.input>
CCc1cc(OCc2ccc3c(-c4nnn[nH]4)cc4ccccc4c(=O)c3c2)c2cc(C(=O)O)ccc2n1

>  <log10(Ki)>
0.43

$$$$
>  <smiles.input>
CCCc1nc2c(C)cc(C)nc2n1Cc1ccc2c(c1)Cc1ccccc1C=C2c1nnn[nH]1

>  <log10(Ki)>
-0.31

$$$$

# return log10(Ki) for each item in the list
1. CCCCc1nc(Cl)c(C=O)n1Cc1ccc2c(-c3nnn[nH]3)cc3ccccc3c(=O)c2c1
2. CCc1cc(OCc2ccc3c(-c4nnn[nH]4)cc4ccccc4c(=O)c3c2)c2nc(OC)ccc2n1
3. CCOC(=O)c1c(OCc2ccc3c(-c4nnn[nH]4)cc4ccccc4c(=O)c3c2)cc(C)nc1C

**Result**
[1.08, -0.32, 0.63]
